- System: EKVX NSCLC
- method-description: NCI tumour cell line growth inhibition, 48 h; in the data active = GI50 below about 0.43 µM; inactive = the rest
Select the matching outcome among TRUE = active, FALSE = inactive

In: Could you please tell me the result logged for `COc1cc2c(cc1O)N=C[C@@H]1C[C@@H](F)CN1C2=O` in this assay?
Out: FALSE

In: Please let me know the test result on file for O=C(OC(CNc1c(C(=O)c2ccccc2)c(=O)n(Cc2ccccc2)c(=O)n1Cc1ccccc1)CN1CCOCC1)c1ccccc1 (centres undefined) .
Out: FALSE

In: Lab log entry: `COc1cc(-n2cncc2-c2ccc3ccccc3c2)cc(OC)c1OC` — outcome as called in the assay?
Out: TRUE

In: Dear all, I need the recorded test outcome for `O=C([O-])c1ccc2c(c1)-c1nc-2nc2[n-]c(nc3nc(nc4[n-]c(n1)c1ccc(C(=O)[O-])cc41)-c1ccc(C(=O)[O-])cc1-3)c1ccc(C(=O)[O-])cc21.[Gd+3].[K+]` , thank you.
Out: FALSE
